These measurements were taken from paper PMC4565635.

system: HaCaT cells; test: MTT cytotoxicity assay, noncancerous cells; assay type: cell-based, human; conditions: 48 hours
parameter.measured: IC50

Query string: Query the reported IC50 for HaCaT cells; item: `CCCCC/C=C/C(=O)CCc1ccc(O)c(OC)c1`
Result string: 104 µM

---

tested on: MDA MB-231 spheroid; test: MTT cytotoxicity assay, spheroids; format: cell-based, human; details: MTT, 48 hours, drug added three days after seeding
parameter.measured: pIC50
FYI, pIC50 means -log10 of a concentration in mol per litre.

Query string: Quick check: pIC50 of `CCCCC/C=C/C(=O)CCc1ccc(O)c(OC)c1` ?
Result string: 4.95
